# Tested on: Human papillomavirus type 1a E7 protein (residues 1-88)
# assay-name: HPV1a E7 small-molecule binders, primary screen, biochemical, small-molecule microarray, residues 1-88, 635 nm (AID 1129)
# reported-conditions: small-molecule microarray binding, fluorescence 635 nm; higher = more signal
Answer each item with its documented composite z-score.
Give bare numbers.

compound	composite z-score
Cc1ccc(S[C@]2(C(=O)NCCN3CCOCC3)CC(=O)N(Cc3ccccc3C(F)(F)F)[C@@H]2c2ccc(CO)cc2I)cc1	-0.0269
Cc1ccc(S[C@]2(C(=O)NC(C)C)CC(=O)N(C3Cc4ccccc4C3)[C@@H]2c2ccc(CO)cc2I)cc1	-0.597
CN1C(=O)C2C=CC(C(O)C3CCCCC3)N(N3CCCCC3)C2C1=O (configuration not stated)	1.26
COc1ccc([Si](C)(C)[C@H]2[C@H](CCO)O[C@@]3(C(=O)N(Cc4cccc(N5CCCCC5=O)c4)c4ccccc43)[C@@H]2C)cc1	1.15
CCOC(=O)[C@@H]1[C@@H]2C(=O)N(CC)C(=O)[C@@H]2C[C@@H]1Sc1ccccc1	1.2
CN(C)CCCNC(=O)[C@@H]1c2ccccc2C(=O)N(CC23CC4CC(CC(C4)C2)C3)[C@H]1c1ccc(CO)cc1	1.27

Turning to the following compound.
Requested field: composite z-score. Item: "COc1cc2c(cc1OC)CN(C(=O)[C@@H]1[C@H]3C(=O)O[C@H](c4ccccc4)[C@H](c4ccccc4)N3[C@H](c3ccccc3OCCO)[C@@]13C(=O)Nc1ccc(C#CC4(O)CCCCCC4)cc13)CC2"
1.17

---

# assayed-system: E3 ubiquitin-protein ligase XIAP (Homo sapiens)
# assay-name: XIAP binders, primary screen, biophysical, small-molecule microarray, fluorescence 635 nm (AID 1181);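 note: score merges 667 nm emission and signal to noise over triplicate slides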
# reported-conditions: small-molecule microarray binding, higher = more signal
Threshold rule: composite z-score greater than or equal to -0.009 is Criterion met; below that, Criterion not met.

Illustrative cases are given below, each with its answer.
compound	label-class
COc1ccc([Si](C)(C)[C@H]2[C@H](CCn3cc([C@H](O)c4ccccc4)nn3)O[C@@]3(C(=O)N(Cc4ccc(N5CCOC5=O)cc4)c4ccccc43)[C@@H]2C)cc1	Criterion not met
CCOc1cc(C(O)C2C=CC3C(=O)N(C)C(=O)C3N2N2CCCCC2)ccc1O (configuration not stated)	Criterion met
CC(C)CN1C(=O)[C@@]2(Cc3ccccc31)c1ccccc1C(=O)N(Cc1ccccc1C(F)(F)F)[C@H]2c1ccc(CO)cc1	Criterion met
CC=CC(O)C1C=CC2C(=O)N(C)C(=O)C2N1Nc1ccc([N+](=O)[O-])cc1[N+](=O)[O-] (configuration not stated)	Criterion not met
C=CC[C@]12N=C(c3ccc(OCCCO)cc3)O[C@H]1c1ccccc1N(C)C2=O	Criterion not met
O=C1C2C=CC(C(O)c3cc(C(F)(F)F)cc(C(F)(F)F)c3)N(Nc3ccc([N+](=O)[O-])cc3)C2C(=O)N1c1ccccc1 (configuration not stated)	Criterion met
O=C(CS)NCCCCCCNC(=O)[C@H]1C[C@H]2C(=O)N[C@@H](Cc3ccccc3)C(=O)N2[C@H]1c1cccc(OCCO)c1	Criterion met
CC=CC(O)C1C=CC2C(=O)N(c3ccccc3)C(=O)C2N1Nc1ccccc1 (configuration not stated)	Criterion met
C[C@H]1C2=C3C(CC[C@H]4C(OCc5ccc(F)cc5C(F)(F)F)OC[C@](C)([C@@H]34)N(C(=O)OC(C)(C)C)C2)C2COC(=O)OCC21 (some centres not stated)	Criterion met
O=c1cccc(-c2cccc(Cl)c2)o1	Criterion met

Hi, just wondering whether CC=CC(O)C1C=CC2C(=O)N(C)C(=O)C2N1N1CCCCC1 (configuration not stated) shows composite z-score of -0.009 or higher.
Criterion not met

Does "C=C(/C=C/CNS(=O)(=O)c1ccc(C)cc1)[C@H](O)[C@H]1CCCN1S(=O)(=O)c1ccccc1[N+](=O)[O-]" have a reported composite z-score of at least -0.009?
Criterion not met

Decide: is the reported value of composite z-score for CC(C)C(O)C1C=CC2C(=O)N(C)C(=O)C2N1Nc1ccccc1 (configuration not stated) equal to or greater than -0.009?
Criterion met

State whether the measured composite z-score reaches -0.009, counting equality as reaching it, for O=C1OCCC=C[C@H]2OC34C=CCN(c5ccc(Cl)cc5)C(=O)[C@H]3N(CCCCCO)C(=O)[C@@H]4C12 (some centres not stated)
Criterion met

Say whether "C[C@@H]1ON(c2ccc(C(=O)OC(C)(C)C)cc2)[C@H](c2ccc(Br)cc2)[C@H]1C(=O)N1C(=O)OC[C@H]1Cc1ccccc1" shows composite z-score of -0.009 or more.
Criterion not met

Check the entry C[C@@H](OCc1ccccc1)C1NC(=O)[C@@]23C(=O)N[C@@H](Cc4ccccc4)C2[C@H](C)[C@@]2(C)O[C@H]2C3/C=C/C/C=C\CNC(=O)CNC1=O (some centres not stated) : does composite z-score equal or exceed -0.009?
Criterion not met

---

Field: z-score. Provide a value for each of the molecules that follow.
# assay-name: adipocyte viability effects, profiling panel, cell-based, 3T3-L1 adipocytes, calcein-AM fluorescence, 48 h, basal (AID 1163); note: test concentration not given here
# reported-conditions: 3T3-L1 adipocytes viability, higher = more signal
Give bare numbers.

Example results:
structure-smiles-string	z-score
C=CC[C@@]1(C(=O)O)N=C(c2ccc(OCCCO)cc2)O[C@@H]1c1ccccc1	-0.563
COC(=O)[C@@]1(Cc2ccc(OC)cc2)[C@H]2c3cc(C(=O)N(C)C)n(Cc4ccccc4)c3C[C@H]2CN1C(=O)c1ccccc1	0.245
CC(C)CNC(=O)[C@@]1(c2ccc([N+](=O)[O-])cc2)CC(=O)N(C2CCCCC2)[C@@H]1c1ccc(CO)cc1I	0.13

# input for lookup
What measured z-score goes with "C[C@@H]1ON(c2ccc(C(=O)OC(C)(C)C)cc2)[C@H](c2ccc(Br)cc2)[C@H]1C(=O)N1C(=O)OC[C@H]1Cc1ccccc1" ?
0.393

---

# assay-name: MM1S myeloma cell viability, profiling panel, resazurin fluorescence, basal, 24 h, PK04 Diversity Set (AID 1174);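 note: MM1S multiple myeloma cell line; test concentration not given here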
# reported-conditions: higher = more signal, called active from +8 up or from −8 down
Consider the following compounds; for each one, report its z-score.
Answers are plain numbers.

Example entries and their recorded answers appear below.
compound	data-value
O=C1OC[C@@H](c2ccccc2)N2CC(/C=C/c3ccccc3)=CC12 (some centres not stated)	0.0637
COc1cc2c(cc1OC)CN(C(=O)[C@H]1[C@@H]3C(=O)O[C@@H](c4ccccc4)[C@@H](c4ccccc4)N3[C@@H](c3ccc(OCCO)cc3)[C@]13C(=O)Nc1ccc(C#CCCO)cc13)CC2	0.113
C=C(C(=O)CC[C@H](OC(=O)c1cccnc1)c1ccc(CO)o1)C(C)C	-0.323
COCCOC(=O)N1C(=O)[C@@]2(c3cc(C#CC4(O)CCCCCC4)ccc31)[C@H](C(N)=O)[C@H]1C(=O)O[C@H](c3ccccc3)[C@H](c3ccccc3)N1[C@@H]2c1ccccc1OCCO	-7.01
CCCCN1CC=CC23O[C@@H]4C=CCOC(=O)[C@@H]4[C@H]2C(=O)N(C(C)CO)[C@@H]3C1=O (some centres not stated)	-0.536
CC=CC(O)C1C=CC2C(=O)N(C)C(=O)C2N1Nc1ccc([N+](=O)[O-])cc1[N+](=O)[O-] (configuration not stated)	-0.831

Next compound, please.
For the compound shown here, "C[N+](C)(C)CCCC[C@@H]1NC(=O)[C@@H]2C[C@H](C(=O)O)[C@H](c3ccc(O)cc3)N2C1=O" , give the reported z-score.
0.18

---

# assay-name: HepG2 cell viability effects, profiling panel, calcein-AM fluorescence, 48 h, basal (AID 1164); note: test concentration not given here
# reported-conditions: higher = more signal
Respond with T for z-score values of 0.7 and above, F for values below.

structure-smiles-string	label-class
CC(C)CNC(=O)[C@@]1(c2ccc([N+](=O)[O-])cc2)CC(=O)N(C2CCCCC2)[C@@H]1c1ccc(CO)cc1I	F
O=C1c2ccccc2[C@](Cc2ccccc2I)(C(=O)NCCN2CCOCC2)[C@H](c2ccc(CO)cc2)N1Cc1ccccc1	T
COc1cc(CO)cc(I)c1O[C@H]1C=C(C(=O)NCCO)C[C@@H](N(CC2CCCCC2)C(=O)c2ccc(C(F)(F)F)cc2)[C@@H]1O	T

Now let's try a different one.
Assess whether reported z-score for "C=CCNC(=O)[C@H]1[C@@H]2C(=O)O[C@@H](c3ccccc3)[C@@H](c3ccccc3)N2[C@@H](c2ccccc2OCCO)[C@]12C(=O)N(C(=O)OCCOC)c1ccc(C#CC3=CCCCC3)cc12" sits at 0.7 or higher.
F

---

# assay-name: E. coli acrAB mutant growth effects, primary screen, E. coli filamentation inducers, strain DRC39, OD650, 48 h (AID 1179);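 note: screen aims at cell division blockers that make cells filament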
# reported-conditions: E. coli DRC39 delta-acrAB growth, higher = more signal, called active from +8 up or from −8 down
Calls of active or inactive are those of the source.
Exercise: for every item that follows, state its recorded z-score.

Solved cases (3 shown):
molecule	data-value
C=CCC(OC(C)=O)[C@@H]1[C@@H](N(Cc2cc3ccccc3o2)C(=O)c2ccc(C)cc2)c2cc(OCCCO)ccc2N1C(=O)Cc1ccc2ccccc2c1 (some centres not stated)	1.08 (inactive)
C=CC[C@@]1(C(=O)N2CCCCC2)N=C(c2ccc(OCCCO)cc2)O[C@@H]1c1ccccc1	-0.155 (inactive)
CCCCC(CC)C(O)C1C=CC2C(=O)N(c3ccccc3)C(=O)C2N1Nc1ccc([N+](=O)[O-])cc1 (configuration not stated)	-0.979 (inactive)

Dear colleague, could you please provide z-score for the molecules listed below?
1. NCCCCCNC(=O)[C@@H]1C[C@@H]2C(=O)N[C@@H](CCCCN)C(=O)N2[C@@H]1c1cccc(OCCO)c1
2. O=C1OCC=C[C@H]2OC34C=CCN(Cn5nnc6ccccc65)C(=O)[C@H]3N(CCCCCCO)C(=O)[C@@H]4[C@@H]12 (some centres not stated)
3. COCCOC(=O)N1C(=O)[C@@]2(c3cc(C#CC4(O)CCCCCC4)ccc31)[C@H](C(N)=O)[C@H]1C(=O)O[C@H](c3ccccc3)[C@H](c3ccccc3)N1[C@@H]2c1ccc(O)cc1
4. NC(=O)N1C(=O)C2C(C1=O)C1C=C(c3ccc(CO)cc3)C2C(C2CC2)N1Cc1sc2ccccc2c1Cl (configuration not stated)

1.22 (inactive)
0.163 (inactive)
0.761 (inactive)
0.112 (inactive)
